# test target: FGFR3 (UniProt P22607)
# Sequence (P22607 whole entry, looked up): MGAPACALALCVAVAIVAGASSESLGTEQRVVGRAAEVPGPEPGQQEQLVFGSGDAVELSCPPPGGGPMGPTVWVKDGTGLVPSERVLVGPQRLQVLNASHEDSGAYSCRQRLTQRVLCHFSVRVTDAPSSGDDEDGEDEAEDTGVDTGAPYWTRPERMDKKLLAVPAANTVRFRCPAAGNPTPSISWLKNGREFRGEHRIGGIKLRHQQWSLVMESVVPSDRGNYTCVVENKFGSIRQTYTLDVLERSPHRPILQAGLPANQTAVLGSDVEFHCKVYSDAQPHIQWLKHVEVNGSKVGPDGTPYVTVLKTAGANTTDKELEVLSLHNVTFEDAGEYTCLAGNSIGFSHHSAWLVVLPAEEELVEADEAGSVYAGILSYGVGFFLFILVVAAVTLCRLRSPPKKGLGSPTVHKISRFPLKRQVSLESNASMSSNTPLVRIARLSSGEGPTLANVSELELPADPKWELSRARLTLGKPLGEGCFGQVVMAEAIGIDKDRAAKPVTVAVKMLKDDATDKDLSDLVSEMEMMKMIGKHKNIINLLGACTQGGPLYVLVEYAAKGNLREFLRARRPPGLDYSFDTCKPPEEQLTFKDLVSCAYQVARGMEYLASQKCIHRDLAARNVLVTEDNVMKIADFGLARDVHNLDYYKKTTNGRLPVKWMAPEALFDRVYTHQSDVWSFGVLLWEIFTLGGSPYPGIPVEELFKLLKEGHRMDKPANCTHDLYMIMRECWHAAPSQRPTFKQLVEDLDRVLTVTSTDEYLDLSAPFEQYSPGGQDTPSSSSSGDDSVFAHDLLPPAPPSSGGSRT
# assay text: phosphorylation enrichment, bacterial display (enrichment ratio); higher = better substrate or ligand; peptides without Tyr show the background;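 also: 11-residue human phosphosite peptides and single-mutation variants displayed on the E. coli surface, counted by deep sequencing, each peptide's frequency after selection divided by its frequency in the unselected input library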;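 also: frequency after pTyr selection over input frequency; kinase dosed for 20-30% of maximal phosphorylation in three min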
Field: phosphorylation enrichment. Provide a value for each of the sequences that follow.
Note: the reply should be a number with no unit written.

Can you share its phosphorylation enrichment? I mean this sequence: VIVRMYDFHVL [RPF2_Y109_G106V_YF] 0.597

One more sequence: RIFDYYSARKA [STOX1_Y858] 0.612

One more sequence: SGRRRYTIAAL [TTR_Y125_P122R] 0.598

----------
# test target: EPHB2 (UniProt P29323)
# Sequence (P29323 whole entry, looked up): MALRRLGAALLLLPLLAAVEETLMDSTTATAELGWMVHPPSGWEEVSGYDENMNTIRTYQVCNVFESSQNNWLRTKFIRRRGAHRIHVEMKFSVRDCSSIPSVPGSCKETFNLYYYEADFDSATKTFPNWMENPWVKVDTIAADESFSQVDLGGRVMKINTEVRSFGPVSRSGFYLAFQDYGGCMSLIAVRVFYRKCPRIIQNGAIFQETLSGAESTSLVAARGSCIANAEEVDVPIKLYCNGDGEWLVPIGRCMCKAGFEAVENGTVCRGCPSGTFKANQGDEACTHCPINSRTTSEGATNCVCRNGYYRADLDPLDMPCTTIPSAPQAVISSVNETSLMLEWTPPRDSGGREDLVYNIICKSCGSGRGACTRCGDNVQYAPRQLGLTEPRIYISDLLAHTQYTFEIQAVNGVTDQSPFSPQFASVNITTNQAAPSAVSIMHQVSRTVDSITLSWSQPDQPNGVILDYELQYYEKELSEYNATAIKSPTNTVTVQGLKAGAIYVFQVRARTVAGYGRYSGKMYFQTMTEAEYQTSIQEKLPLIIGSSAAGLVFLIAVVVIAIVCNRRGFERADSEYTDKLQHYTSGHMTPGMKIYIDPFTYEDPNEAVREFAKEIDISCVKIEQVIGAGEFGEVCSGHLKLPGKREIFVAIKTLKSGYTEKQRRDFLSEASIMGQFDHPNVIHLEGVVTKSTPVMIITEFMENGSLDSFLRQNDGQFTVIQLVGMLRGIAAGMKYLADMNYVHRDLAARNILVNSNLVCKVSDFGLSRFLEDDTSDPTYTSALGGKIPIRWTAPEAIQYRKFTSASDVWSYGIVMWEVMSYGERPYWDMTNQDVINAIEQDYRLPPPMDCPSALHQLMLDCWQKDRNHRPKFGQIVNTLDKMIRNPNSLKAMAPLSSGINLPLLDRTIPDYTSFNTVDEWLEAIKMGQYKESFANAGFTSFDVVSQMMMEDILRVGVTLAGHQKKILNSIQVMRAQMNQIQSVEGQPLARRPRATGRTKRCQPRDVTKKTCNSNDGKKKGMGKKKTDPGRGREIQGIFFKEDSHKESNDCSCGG
# assay text: phosphorylation enrichment, bacterial display (enrichment ratio); higher = better substrate or ligand; peptides without Tyr show the background
Field: phosphorylation enrichment. Provide a value for each of the sequences that follow.
Note: the reply should be a number with no unit written.

Can you share its phosphorylation enrichment? I mean this sequence: PSPMPYACCQM [FOXL2_Y215_S217C] 0.437

One more sequence: KGIDRYNPENL [EIF3K_Y21] 0.446

One more sequence: PEPTGYSAELS [EZR_Y499_A494P] 0.851

One more sequence: FSLIHYAGIVD [MYH7_Y582] 0.648

One more sequence: SGRRRYTIAAL [TTR_Y125_P122R] 0.581

One more sequence: VYSIDYYRVGG [NTRK2_Y706_T704I] 3.13

One more sequence: DGFTDYAEFAK [MCFD2_Y138_I136T_YF] 0.741

One more sequence: WSISFYPQVIM [CTNS_Y143] 0.552

One more sequence: DLDLTYIFPNI [PTEN_Y27_YF] 1.15

----------
# test target: FGFR1 (UniProt P11362)
# Sequence (P11362 whole entry, looked up): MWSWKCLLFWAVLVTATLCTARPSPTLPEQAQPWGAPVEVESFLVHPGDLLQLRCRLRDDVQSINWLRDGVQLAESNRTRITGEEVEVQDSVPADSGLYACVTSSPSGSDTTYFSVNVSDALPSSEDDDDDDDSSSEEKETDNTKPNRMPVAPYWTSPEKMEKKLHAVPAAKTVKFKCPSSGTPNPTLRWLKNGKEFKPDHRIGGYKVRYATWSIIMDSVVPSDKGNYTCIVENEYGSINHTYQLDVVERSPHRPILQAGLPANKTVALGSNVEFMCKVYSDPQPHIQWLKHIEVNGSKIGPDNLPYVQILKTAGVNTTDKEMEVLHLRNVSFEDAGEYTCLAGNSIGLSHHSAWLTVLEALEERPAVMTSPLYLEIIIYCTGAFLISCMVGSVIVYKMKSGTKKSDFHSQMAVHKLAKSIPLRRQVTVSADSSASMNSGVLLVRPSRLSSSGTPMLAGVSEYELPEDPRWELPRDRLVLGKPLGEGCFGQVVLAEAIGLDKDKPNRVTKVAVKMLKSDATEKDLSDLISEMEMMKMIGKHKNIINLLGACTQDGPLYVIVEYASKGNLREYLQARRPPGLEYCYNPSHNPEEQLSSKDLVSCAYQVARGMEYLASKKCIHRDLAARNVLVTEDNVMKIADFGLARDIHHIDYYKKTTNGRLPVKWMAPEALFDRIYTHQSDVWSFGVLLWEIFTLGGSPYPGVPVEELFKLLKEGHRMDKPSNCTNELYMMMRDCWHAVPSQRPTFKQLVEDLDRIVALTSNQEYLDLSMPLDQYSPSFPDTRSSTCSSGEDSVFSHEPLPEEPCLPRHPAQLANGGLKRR
# assay text: phosphorylation enrichment, bacterial display (enrichment ratio); higher = better substrate or ligand; peptides without Tyr show the background
quantity: phosphorylation enrichment
Note: the reply should be a number with no unit written.

Quick check: phosphorylation enrichment on FGFR1 (UniProt P11362), item RAQIRYAQEHD [NSD1_Y1987_R1984Q] ? 0.507

One more sequence: `IKETHYMVDKC` 0.489

One more sequence: SASRSYSRSRS [SRRM4_Y549] 0.426

One more sequence: PVQAAYPKVVA [HBB_Y131_Q132P] 0.322

One more sequence: FRRITYFNWRH [PDE6B_Y556_H557Y_YF] 0.553

One more sequence: TDLAFYLVRKG [ASL_Y376_YF] 0.497

One more sequence: WSISFYPQVIM [CTNS_Y143] 0.513

One more sequence: GRQGIYTENER [GPR143_Y231] 0.464

One more sequence: GVSYIYTIDGS [DCX_Y105_R102S] 0.494

One more sequence: LLTALYFISRG [KCNH2_Y780] 0.8

One more sequence: FSLIHYAGIVD [MYH7_Y582] 0.405

One more sequence: SVLVPYEPPEV [TP53_Y220_V217L] 0.505

One more sequence: DLNATYRTIQG [U2SURP_Y634] 0.583

One more sequence: ATDLAYFLVRE [ASL_Y375_K380E_YF] 4.9

One more sequence: CNPLRYPVLMS [OR2T1_Y182] 0.476

One more sequence: IQSAKYDMAED [TTC21B_Y1213] 0.611

One more sequence: MIRSAYALGGL [CPS1_Y590] 0.392

One more sequence: TDEYEYDELIV [TGM1_Y136] 0.664

One more sequence: DTERIYDDDFF [UBA1_Y560] 0.605

One more sequence: RETSLYKACER [ASB2_Y162_P160S] 0.548

One more sequence: KQFWRYFAGNL [SLC25A4_Y112] 0.461

One more sequence: SNPAFYVLEGV [INPPL1_Y987_N982S_YF] 0.509

One more sequence: VYSIDYYRVGG [NTRK2_Y706_T704I] 10.9

One more sequence: PRQRRYVYYYS [PTEN_Y174_S170R] 0.753

One more sequence: RSRQIYDAFIM [GRK3_Y109_YF] 0.339

One more sequence: IPGGIYDADLN [CST4_Y35] 0.746

One more sequence: FADIAYSFRHG [PAH_Y166_N167S_YF] 0.313

One more sequence: MEIHAYHKLLE [LMNA_Y376_R377H] 0.474

One more sequence: KWRGQYDVAIR [BTK_Y425_K430R] 0.426

One more sequence: ETELPYQELQG [TYROBP_Y91_S89L] 1.65

One more sequence: SGASGYSATST [CERT1_Y143] 0.478
